# experimental.system: human Glucagon receptor (GCGR) (human, UniProt P47871 26-477)
# Sequence (P47871 26-477): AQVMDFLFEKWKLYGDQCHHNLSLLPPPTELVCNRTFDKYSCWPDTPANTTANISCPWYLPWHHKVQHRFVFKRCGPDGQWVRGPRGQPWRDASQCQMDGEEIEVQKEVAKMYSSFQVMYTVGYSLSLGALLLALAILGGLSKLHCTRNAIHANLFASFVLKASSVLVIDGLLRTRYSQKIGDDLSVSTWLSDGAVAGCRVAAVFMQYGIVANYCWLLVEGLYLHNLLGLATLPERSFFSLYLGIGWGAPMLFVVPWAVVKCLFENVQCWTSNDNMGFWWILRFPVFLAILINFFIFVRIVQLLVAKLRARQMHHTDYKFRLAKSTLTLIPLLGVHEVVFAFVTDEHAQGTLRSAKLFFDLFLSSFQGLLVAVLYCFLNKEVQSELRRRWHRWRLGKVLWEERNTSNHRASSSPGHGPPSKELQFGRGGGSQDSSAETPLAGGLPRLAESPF
# assay.name: cell-based or functional assay
Numbered stars: 1 amine (or outer) side, 2 acyl side, 3 side chain; on linkers, the order of the positions; unused ones are H or OH. Square brackets hold non-standard residues; d marks the D form. Primed or numbered codes have the meaning given here. Side chains are listed from the residue outwards. Ends that are not written are not given here. * marks the point of attachment. Phe(4-CH2NH2) = NCc1ccc(C[C@H](N)C(=O)O)cc1; C16 diacid = O=C(O)CCCCCCCCCCCCCCC(=O)*; γGlu = O=C(O)[C@H](CCC(=O)[*:2])N[*:1]; Met(O2) = CS(=O)(=O)CC[C@H](N)C(=O)O; αMeD = C[C@](N)(CC(=O)O)C(=O)O; PEG2′ = not defined here; AEEA = NCCOCCOCC(=O)O; Aib = CC(C)(N)C(=O)O
measurement.name: GCGR EC50 human (nM)
Express your answer in nM, writing the number without its unit.

H[αMS]QGTFTSDYSKYLD[Aib]RAAQK([PEG2′-PEG2′-γGlu-C16 diacid])FVQWL[Met(O2)][αMD]T-NH2 [TP619] | 0.05
H[Aib]QGTFTSDYSKYLDARAAQDFVQWL[Met(O2)]K([AEEA-AEEA-γGlu-C20‑OH])T-NH2 [TP603] | 1.88
H[Aib]QGTFTSD[Phe(4-CH2NH2)]([AEEA-AEEA-γGlu-C16 diacid])SKYLD[Aib]RAAQDFVQWLL[αMeD]TK-{γGlu-NH2} [TP657] | 0.14

Please examine the following record next.
[Q] GCGR EC50 human for HXQGTFTSDXSKYLDARAAQDFVQWLLDT (D-Ser (s) at 2; Nle(1,2,3-triazole-4-C4-Lys-C16) at 10; C-terminal amide) [TP831] ?
[A] 0.14
